assay: Probe fluorescence ratio response to linolenic acid relative to ADIFAB2; assay type: binding; details: response relative to ADIFAB2
Measurement kind: DR/DR LNA

[
  {
    "Molecule": "115R1, 72A (protein, listed as Rattus norvegicus, PEPTIDE (1)...(131) wild-type rat intestinal fatty acid binding protein) AFDGTWKVDRNENYEKFMEKMGINVVKRKLGAHDNLKLTITQEGNKFTVKESSNFRNIDVVFELGVDFAYSAADGTELTGTWTMEGNKLVGKFKRVDNGKELIAVREISGNELIRTYTYEGVEAKRIFKKE",
    "DR/DR LNA": 1.43
  }
]

Moving on to another molecule below.
Prompt: Using the record for 55Q, 72A (protein, listed as Rattus norvegicus, PEPTIDE (1)...(131) wild-type rat intestinal fatty acid binding protein) AFDGTWKVDRNENYEKFMEKMGINVVKRKLGAHDNLKLTITQEGNKFTVKESSNQRNIDVVFELGVDFAYSAADGTELTGTWTMEGNKLVGKFKRVDNGKELIAVREISGNELIQTYTYEGVEAKRIFKKE , state its measured DR/DR LNA.
Response: 0.492
